Hello, the source for this data is ChEMBL document CHEMBL1201862, in case you need it.

Tested on: PC-3
Test: NCI tumour cell line growth inhibition, 48 h
Activity calls are given as the source filed them. Cut-off read from the data, not from the text of the source: active = GI50 up to about 1.1 µM and inactive = higher.
I would appreciate it if you answered using one of these outcomes: active, inactive

# input Kindly provide the recorded test outcome for the following compound: CCC1(N)C(=O)OCc2c1cc1n(c2=O)Cc2cc3ccccc3nc2-1 (stereo unspecified)
# output inactive

# input Kindly provide the recorded test outcome for the following compound: `NS(=O)(=O)c1ccc(/C=C/c2ccc(O)cc2)cc1`
# output inactive

# input Kindly provide the recorded test outcome for the following compound: `CC1(C)CCC[C@]2(C)[C@@H]1CC[C@@]13O[C@@H]1C1=C(CO)C(=O)OC1=C[C@@H]23`
# output inactive

# input Kindly provide the recorded test outcome for the following compound: `CCCN(CCC)C(=S)N/N=C/c1ccccn1`
# output active

# input Kindly provide the recorded test outcome for the following compound: `CCOC(=O)c1ccc(-n2cnc(-c3ccc([N+](=O)[O-])cc3)c2)cc1`
# output inactive

# input Kindly provide the recorded test outcome for the following compound: C=CCC1(C(=O)OC)CCC/C(=N\O)C1 (stereo unspecified)
# output inactive

# input Kindly provide the recorded test outcome for the following compound: `COc1ccccc1NC(=O)C(C#N)=C(SC)SC`
# output inactive

# input Kindly provide the recorded test outcome for the following compound: [O-][S+](c1ccc(Cl)cc1)c1ccccc1C1=NCCN1 (stereo unspecified)
# output inactive

# input Kindly provide the recorded test outcome for the following compound: `Cc1ccc(C2=Nc3cccc4cccc(c34)N2)cc1`
# output inactive

# input Kindly provide the recorded test outcome for the following compound: `Cc1cn(CCCCCCC2=NCCCN2)c(=O)[nH]c1=O`
# output inactive

# input Kindly provide the recorded test outcome for the following compound: COC(=O)c1c2c(cc3c1CC1(Cc4cc5c(c(C)c4C1)CCC5)C3)CCC2 (stereo unspecified)
# output inactive
